# Test system: Rhizoctonia solani
# PROCEDURE SUMMARY: Mycelial inhibition test, Rhizoctonia solani
# Type: cell-based
# EXPERIMENTAL SETUP: paper strips on potato dextrose agar, 25° C., 24 hours
Kindly state Mycelia Inhibition, micrograms/cm for 99% control, R for each of the entries shown.

SMILES STRING	SYSTEM UNDER TEST	RECORDED VALUE
O=S(=O)(Nc1ccc(Cl)cc1)C(Cl)=C(Cl)Cl	Rhizoctonia solani	> 1.7 micrograms/cm

Give Mycelia Inhibition, micrograms/cm for 99% control, R for all molecules that follow.
1. Cc1cc(Sc2ccccc2)ccc1NS(=O)(=O)C(Cl)=C(Cl)Cl
2. O=S(=O)(Nc1ccc(Cl)c(Cl)c1)C(Cl)=C(Cl)Cl

1: > 1.7 micrograms/cm; 2: > 1.7 micrograms/cm
